Biological target: hKOR (Homo sapiens, UniProt P41145)
Sequence (P41145 whole entry): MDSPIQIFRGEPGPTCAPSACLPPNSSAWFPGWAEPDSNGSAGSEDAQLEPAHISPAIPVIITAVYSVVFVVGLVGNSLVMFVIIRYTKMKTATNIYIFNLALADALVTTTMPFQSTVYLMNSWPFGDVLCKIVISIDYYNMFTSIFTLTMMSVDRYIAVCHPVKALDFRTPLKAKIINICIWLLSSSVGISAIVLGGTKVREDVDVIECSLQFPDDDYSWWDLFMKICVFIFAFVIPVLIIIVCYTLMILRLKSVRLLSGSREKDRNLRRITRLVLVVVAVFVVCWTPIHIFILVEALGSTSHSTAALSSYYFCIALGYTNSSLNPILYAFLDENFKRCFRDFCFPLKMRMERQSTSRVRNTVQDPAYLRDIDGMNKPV
Test: [35S]GTP-γ-S binding assay, antagonist shift design, KOR
Type: biochemical
Examples of compounds with documented Kb follow.
Give the value in nM but do not write nM after it.

Some solved entries appear below for comparison.
1. O=C(O[C@@]12Cc3cc(-c4ccc(Cl)cc4)cnc3[C@@H]3Oc4c(O)ccc5c4[C@@]31CCN(CC1CC1)[C@@H]2C5)c1ccccc1 [18a]: 126
2. CN1CC[C@]23c4c5ccc(O)c4O[C@H]2c2ncc(-c4ccc(Cl)cc4)cc2C[C@@]3(OC(=O)c2ccccc2)[C@H]1C5 [18d]: 426
3. CN1CC[C@]23c4c5ccc(O)c4O[C@H]2c2ncc(-c4ccc(Cl)cc4)cc2C[C@@]3(OC(=O)Cc2ccccc2)[C@H]1C5 [18e]: 198
4. CN1CC[C@]23c4c5ccc(O)c4O[C@H]2c2ncc(-c4ccc(Cl)cc4)cc2C[C@@]3(OCc2ccccc2)[C@H]1C5 [17f]: 83
5. O=C(CCc1ccccc1)O[C@@]12Cc3cc(-c4ccc(Cl)cc4)cnc3[C@@H]3Oc4c(O)ccc5c4[C@@]31CCN(CC1CC1)[C@@H]2C5 [18c]: 14
6. Oc1ccc2c3c1O[C@H]1c4ncc(-c5ccc(Cl)cc5)cc4C=C4[C@@H](C2)N(CC2CC2)CC[C@]431: 19
7. CN1CC[C@]23c4c5ccc(O)c4O[C@H]2c2ncc(-c4ccc(Cl)cc4)cc2C[C@@]3(OC(=O)CCc2ccccc2)[C@H]1C5 [18f]: 18
8. Oc1ccc2c3c1O[C@H]1c4ncc(-c5ccc(Cl)cc5)cc4C[C@@]4(OCc5ccccc5)[C@@H](C2)N(CC2CC2)CC[C@]314 [17b]: 13
9. CN1CC[C@]23c4c5ccc(O)c4O[C@H]2c2ncc(-c4ccc(Cl)cc4)cc2C[C@@]3(OCCCc2ccccc2)[C@H]1C5 [17h]: 6.9
10. CO[C@@]12Cc3cc(-c4ccc(Cl)cc4)cnc3[C@@H]3Oc4c(O)ccc5c4[C@@]31CCN(C)[C@@H]2C5 [17e]: 17

Please examine the following record next.
Q. Output Kb of O=C(Cc1ccccc1)O[C@@]12Cc3cc(-c4ccc(Cl)cc4)cnc3[C@@H]3Oc4c(O)ccc5c4[C@@]31CCN(CC1CC1)[C@@H]2C5 [18b]
A. 7
